test system: Colon cancer organoid; experiment: Identification of compartment-specific drug sensitivities in O20 CRC organoid-stroma F20 CAF co-cultures. Organoid is transduced with Lucferase2-P2A-EGFP lentivirus, fibroblast with Renilla-dsRed lentivirus. Dual-Glo Luciferase assay is used to report viability data.; type: functional, Homo sapiens; parameters: dose or concentration left out as unconfirmed; settings: Transduced with Renilla-dsRed lentivirus
Provide the reported Cell Viability of each item.
Write the value in % as a bare number.

Query: Consider the molecule `CCc1cc(Nc2nccc(-c3c(-c4ccc(OC)c(C(=O)Nc5c(F)cccc5F)c4)nc4ccccn34)n2)c(OC)cc1N1CCC(N2CCN(S(C)(=O)=O)CC2)CC1` and give its measured Cell Viability.
Response: 82.2783

Query: Consider the molecule `O=C(O)c1ccc(-c2coc3ncc(-c4ccccc4)cc23)cc1Cl` and give its measured Cell Viability.
Response: 126.188

Query: Consider the molecule `CC(=O)Nc1c(C(C)=O)c(=O)n(C)c2nc(-c3ccc(Cl)cc3Cl)c(-c3ccc(Cl)cc3)cc12` and give its measured Cell Viability.
Response: 98.6055

====

Provide the reported Cell Viability of each item.
tested on: Colon cancer organoid; test: Identification of compartment-specific drug sensitivities in O20 CRC organoid-stroma F20 CAF co-cultures. Organoid is transduced with Lucferase2-P2A-EGFP lentivirus, fibroblast with Renilla-dsRed lentivirus. Dual-Glo Luciferase assay is used to report viability data.; type: functional, Homo sapiens; parameters: dose or concentration left out as unconfirmed; conditions: Transduced with Renilla-dsRed lentivirus
Param answer (str): number followed by unit.

Query: Consider the compound Cn1c(-c2csc(C3CCN(CC4=NC5N=CC=CC5N4)CC3)n2)nc2ccccc21 (stereo not given) and give its measured Cell Viability.
Response: 84.0468%

Query: Consider the compound `Cc1cc2c(-c3ccco3)cnc(N[C@H]3CCN(C)C[C@@H]3C(=O)NC3CCCCC3)c2[nH]c1=O` and give its measured Cell Viability.
Response: 116.18%

Query: Consider the compound `CCN1CCN(c2ccc(Nc3cc(N(C)C(=O)Nc4c(Cl)c(OC)cc(OC)c4Cl)ncn3)cc2)CC1` and give its measured Cell Viability.
Response: 52.242%

Query: Consider the compound `CC(=O)Nc1cccc(-n2c(=O)n(C3CC3)c(=O)c3c(Nc4ccc(I)cc4F)n(C)c(=O)c(C)c32)c1` and give its measured Cell Viability.
Response: 46.1337%

Query: Consider the compound `CC(C)(O)CNc1ncc(-c2ccnc(Nc3ccnc(Cl)c3)n2)c(CC2CC2)n1` and give its measured Cell Viability.
Response: 172.835%

====

test system: Colon cancer organoid; assay: Identification of compartment-specific drug sensitivities in O20 CRC organoid-stroma F20 CAF co-cultures. Organoid is transduced with Lucferase2-P2A-EGFP lentivirus, fibroblast with Renilla-dsRed lentivirus. Dual-Glo Luciferase assay is used to report viability data.; type: functional, Homo sapiens; parameters: dose or concentration left out as unconfirmed; settings: Transduced with Lucferase2-P2A-EGFP lentivirus
recorded metric: Cell Viability (%)
Write the value in % as a bare number.

Query: Missing value: Cell Viability, Colon cancer organoid, entry Cn1cnc2c(F)c(Nc3ccc(Br)cc3Cl)c(C(=O)NOCCO)cc21 [SELUMETINIB] . Fill in?
Response: 54.0546

Query: Missing value: Cell Viability, Colon cancer organoid, entry `Cc1c(NC(=O)c2ccc(C(C)(C)C)cc2)cccc1-c1cn(C)c(=O)c(Nc2ccc(C(=O)N3CCOCC3)cc2)n1` . Fill in?
Response: 110.349

Query: Missing value: Cell Viability, Colon cancer organoid, entry CC(=O)Nc1c(C(C)=O)c(=O)n(C)c2nc(-c3ccc(Cl)cc3Cl)c(-c3ccc(Cl)cc3)cc12 [NAPHTHYRIDINONE] . Fill in?
Response: 105.882

Query: Missing value: Cell Viability, Colon cancer organoid, entry COc1cccc(CNC(=O)c2nc3scc(CN(C)Cc4ccccc4)c3c(=O)[nH]2)c1 [T-26f] . Fill in?
Response: 156.545

Query: Missing value: Cell Viability, Colon cancer organoid, entry `O=C(O)CNC(=O)c1c(O)c2ccccc2n(Cc2ccccc2)c1=O` . Fill in?
Response: 96.6263

Query: Missing value: Cell Viability, Colon cancer organoid, entry CNC(=O)c1cc(C(=O)N[C@H]2[C@@H]3COC[C@@H]32)cc2c1O[C@H](CF)[C@H]2c1ccccc1 [GSK973] . Fill in?
Response: 97.9061

Query: Missing value: Cell Viability, Colon cancer organoid, entry C[C@]1(O)C[C@@H](c2nc(-c3ccc4ccc(-c5ccccc5)nc4c3)c3c(N)nccn32)C1 [LINSITINIB] . Fill in?
Response: 60.6188

Query: Missing value: Cell Viability, Colon cancer organoid, entry FC(F)c1nc2ccccc2n1-c1nc(N2CCOCC2)nc(N2CCOCC2)n1 [ZSTK-474] . Fill in?
Response: 124.253

Query: Missing value: Cell Viability, Colon cancer organoid, entry `CNc1nc(Nc2cnn([C@H]3CCN(C4COC4)C[C@@H]3F)c2Cl)ncc1C(F)(F)F` . Fill in?
Response: 197.594

The measured values listed here are drawn from ChEMBL document CHEMBL5608141.
